Reference source for all entries: patent US9487540B2

- method: Cytotoxicity evaluation using viability assay (crystal violet colorimetric method)
- Assay type: cell-based
- assayConditions: human, HepG2 cells, HepG2, sample conc. 0.39 μg

querySmiles: O=c1[nH]c(Nc2ccc([N+](=O)[O-])cc2)nc2sc3c(c12)CCCCC3
outputUnit: %
viability at 48 h, 0.39 μg: 60.8

---

- method: Cytotoxicity evaluation using viability assay (crystal violet colorimetric method)
- Format: cell-based, human
- assayConditions: human, HepG2 cells; HepG2, sample conc. 1.56 μg, 48 hours
The following compounds are listed with their measured viability at 48 h, 1.56 μg values.

compound: COc1cccc2c1C(=O)c1c(O)c3c(c(O)c1C2=O)C[C@@](O)(C(=O)CO)C[C@@H]3O[C@H]1C[C@H](N)[C@H](O)[C@H](C)O1 [Doxorubicin, reference compound]
viability at 48 h, 1.56 μg [%]: 48.2
--
compound: O=c1[nH]c(Nc2ccc([N+](=O)[O-])cc2)nc2sc3c(c12)CCCCC3 [Compound III]
viability at 48 h, 1.56 μg [%]: 36.9

---

The following compounds are listed with their measured viability at 48 h, 50 μg values.
- method: Cytotoxicity evaluation using viability assay (crystal violet colorimetric method)
- Type: cell-based, human
- assayConditions: human, HepG2 cells; HepG2, sample conc. 50 μg, 48 hours

compound: O=c1[nH]c(Nc2ccc([N+](=O)[O-])cc2)nc2sc3c(c12)CCCCC3
viability at 48 h, 50 μg / %: 6.32
--
compound: COc1cccc2c1C(=O)c1c(O)c3c(c(O)c1C2=O)C[C@@](O)(C(=O)CO)C[C@@H]3O[C@H]1C[C@H](N)[C@H](O)[C@H](C)O1 [Doxorubicin, reference compound]
viability at 48 h, 50 μg / %: 10.9

---

The following compounds are listed with their measured viability at 48 h, 6.25 μg values.
- method: Cytotoxicity evaluation using viability assay (crystal violet colorimetric method)
- Assay type: cell-based, human
- assayConditions: human, HepG2 cells; HepG2, sample conc. 6.25 μg, 48 hours

compound: O=c1[nH]c(Nc2ccc([N+](=O)[O-])cc2)nc2sc3c(c12)CCCCC3
viability at 48 h, 6.25 μg, %: 18.5
--
compound: COc1cccc2c1C(=O)c1c(O)c3c(c(O)c1C2=O)C[C@@](O)(C(=O)CO)C[C@@H]3O[C@H]1C[C@H](N)[C@H](O)[C@H](C)O1 [Doxorubicin, reference compound]
viability at 48 h, 6.25 μg, %: 21

---

The following compounds are listed with their measured viability at 48 h, 0.78 μg values.
- method: Cytotoxicity evaluation using viability assay (crystal violet colorimetric method)
- Format: cell-based
- assayConditions: human, HepG2 cells, HepG2, sample conc. 0.78 μg

compound: COc1cccc2c1C(=O)c1c(O)c3c(c(O)c1C2=O)C[C@@](O)(C(=O)CO)C[C@@H]3O[C@H]1C[C@H](N)[C@H](O)[C@H](C)O1 [Doxorubicin, reference compound]
viability at 48 h, 0.78 μg: 57.4%
--
compound: O=c1[nH]c(Nc2ccc([N+](=O)[O-])cc2)nc2sc3c(c12)CCCCC3
viability at 48 h, 0.78 μg: 47.1%
